The reported measurements were obtained from ChEMBL document CHEMBL4513216.

Tested on: Plasmodium berghei
Test: Screen against P. berghei liver stage (PbLuc), transformed with Luciferase, at 2uM
Format: functional, HepG2
Details: tested at 2 uM
About 2,700 (4%) of roughly 68,000 compounds showed an effect of 50% or more. This is one part of a sample in which strong results are shown more often than they occur.
Measured INHIBITION accompanies every entry in the list below.
ENDPOINT LABEL: INHIBITION (%)

In [3]: df
Out[3]:
                                    compound  unit_label  experimental_value
 0  CC(C)(C)OC(=O)NCC1CCCCN1Cc1cccnc1 (stereo not drawn)           %               24.05
 1  CC(C)=CCN1C[C@@H]2CC[C@H]1CN(Cc1coc(C)n1)C2           %              -60.75
 2                CCN(CC)CCSc1ncnc2[nH]ncc12           %              -57.02
 3  CN1CCOC(C(=O)N(C)c2ccc3c(c2)CCO3)C1 (stereo not drawn)           %              -30.56
 4  O=C(C[S+]([O-])Cc1cccc(F)c1)NC1CCCC1 (stereo not drawn)           %               27.67
 5  CCN(CC)c1ncc(Cl)c(C(=O)NC2CCC(O)CC2)n1 (stereo not drawn)           %               -2.22
 6  CC(C)OC(=O)CNC(=O)Nc1ccc(-c2nc(C(C)C)no2)cc1           %              -13.72
 7  CCOc1ccccc1CCNC(=O)NCC(O)c1cccs1 (stereo not drawn)           %              -23.79
 8  CN1CCCC[C@@H]2[C@H]1[C@@H](c1ccccc1)CCN2C(=O)c1cccnc1           %               51.57
 9  CC(C)NC(=O)N1C[C@@H]2C[C@H](C(=O)N3CCCC3)[C@H](C1)O2           %              -17.24
10  CC(C)(C)OC(=O)NCC1CCCCN1Cc1ccncc1 (stereo not drawn)           %               54.29
11  CN(C)c1ccc(CCCNC(=O)NCC(O)c2ccsc2)cc1 (stereo not drawn)           %               34.55
12  COc1cccc(-c2noc3c2CN(c2nc(C)ncc2C)CC3)c1           %               36.28
13  COc1cccc(-c2noc3c2CN(c2ncnc4c2CCC4)CC3)c1           %               62.51
14  CCO[C@H]1CO[C@@]2(CCN(Cc3ccc4c(c3)OCO4)C2)C1           %              -23.42
15  CN1CCCC[C@@H]2[C@H]1[C@@H](c1ccccc1)CCN2C(=O)c1ccccc1           %              -60.34
16  CC(C)c1nccn1CCCNC(=O)c1ccc(-c2cncnc2)nc1           %               27.84
17  COc1ccc(N(C)C(=O)C2CN(C)CCO2)cc1F (stereo not drawn)           %               71.05
18  COc1cc2nc3n(c(=O)c2cc1OC)CCN(C(=O)C1CCC1)CC3           %              -50.24
19  Fc1cccc(CN2CCOCC3(CCN(C4CCOCC4)C3)C2)c1 (stereo not drawn)           %               30.29
20  O=C([C@@H]1COC[C@H]2CN(C3CCCC3)C[C@H]21)N1CCC(F)CC1           %                9.45
21  Cc1ccc(CCNC(=O)Cn2nc(C)n(Cc3ccccc3)c2=O)s1           %                -8.8
22  COCC1N(C(=O)c2ccco2)C2CCC1(O)CC2 (stereo not drawn)           %                3.88
